Sourced from patent US20200031778A1

Test system: Septoria tritici
Test: Example IX-B: in vivo preventive test on Septoria tritici (leaf spot on wheat)
Details: Zymoseptoria tritici, 576 h; compounds of formula IX; 500 ppm of active ingredient; wheat plants, preventive spray; evaluated 24 days after inoculation; read-out: efficacy
Would you kindly list pest or weed control at 500 ppm for each of these compounds?

(Q) Give the measured pest or weed control at 500 ppm for O=C(Cn1cncc1Cl)c1ccc(Oc2ccc(Cl)cn2)cc1Cl [IX-05]
(A) 80 to 89%

(Q) Tell me pest or weed control at 500 ppm reported for N#Cc1cncn1CC(=O)c1ccc(Oc2ccc(I)cc2)cc1F [IX-63]
(A) 90 to 100%

(Q) Name the recorded pest or weed control at 500 ppm of the compound listed here: O=C(Cn1cncc1F)c1cnc(Oc2ccc(C(F)F)cc2)cc1C(F)(F)F [IX-97]
(A) 90 to 100%

(Q) Specify measured pest or weed control at 500 ppm for CC(=O)c1cncn1CC(=O)c1ccc(Oc2ccc(Br)cc2)nc1C(F)(F)F [IX-122] .
(A) 90 to 100%

(Q) Specify measured pest or weed control at 500 ppm for O=C(Cn1cncc1Br)c1ccc(Oc2ccc(S(F)(F)(F)(F)F)cc2)nc1Cl [IX-26] .
(A) 80 to 89%

(Q) State, in one line, measured pest or weed control at 500 ppm of O=C(Cn1cncc1C(F)(F)F)c1ccc(Oc2ccc(I)cc2)cc1F [IX-49]
(A) 90 to 100%

(Q) Provide one value: measured pest or weed control at 500 ppm of O=C(Cn1cncc1F)c1cnc(Oc2ccc(Cl)cc2)cc1Br [IX-93]
(A) 90 to 100%

(Q) Given O=C(Cn1cncc1Cl)c1ccc(Oc2ccc(Cl)nc2)cc1C(F)(F)F [IX-28] , respond with its pest or weed control at 500 ppm.
(A) 90 to 100%

(Q) Name the recorded pest or weed control at 500 ppm of the compound listed here: N#Cc1cncn1CC(=O)c1ccc(Oc2ccc(Br)nc2)cc1Cl [IX-76]
(A) 90 to 100%

(Q) Note down pest or weed control at 500 ppm recorded for O=C(Cn1cncc1Cl)c1ccc(Oc2ccc(I)cc2)cc1Br [IX-38]
(A) 90 to 100%

---

Please provide measured LogP for the entries that follow.
Experiment: Log P by HPLC on reversed phase columns (EEC directive 79/831 Annex V.A8; methods [a], [b], [c])
Assay type: physicochemical

(Q) # return recorded LogP for entry CCCCC(O)(Cn1cncc1C#N)c1ccc(C(F)(F)F)cc1F (stereo not drawn)
(A) 3.35^[a]

(Q) Indicate its recorded LogP; the compound in question is CCCC(C)C(O)(Cn1cncc1C#N)c1ccc(Cl)cc1 (single isomer, unassigned) [I-328]
(A) 3.15^[a]

(Q) Provide only the value of recorded LogP for OC(Cn1cncc1Cl)c1ccc(Oc2cccnc2)cc1Cl (stereo not drawn)
(A) 1.13^[a]

(Q) Return LogP (reported value) for this compound: N#Cc1cncn1CC(O)(CCCC1CCCCC1)CC1CC1 (stereo not drawn)
(A) 3.91^[a]

(Q) Give LogP for CC(C)(C)C(O)(Cn1cncc1C#N)c1cc(Cl)c(Cl)c(Cl)c1 (stereo not drawn)
(A) 3.59^[a]

(Q) Provide measured LogP value, entry: CC(O)(Cn1cncc1Cl)c1ccc(Oc2ccc(Br)cn2)cc1Cl (stereo not drawn)
(A) 2.32^[a]

(Q) Dear colleague, please send me the reported LogP for COC(Cn1cncc1C#N)c1ccc(Oc2ccc(Br)cc2)cc1Br (stereo not drawn) when you can.
(A) 4.20^[a]

(Q) Supply recorded LogP for N#Cc1cncn1CC(O)(CCc1ccc(OC(F)(F)F)c(F)c1)C1(Cl)CC1 (stereo not drawn) here.
(A) 3.31^[a]

(Q) Provide only the value of recorded LogP for CC(C)(C)C(O)(Cn1cncc1C#N)c1ccc(Cl)cc1Cl (stereo not drawn)
(A) 3.37^[a]

(Q) Answer with reported LogP of N#Cc1cncn1CC(O)(c1ccc(Cl)cc1F)C1(F)CC1 (stereo not drawn)
(A) 2.36^[a]

(Q) Give the reported value of LogP for this record: C[Si](C)(C)C#Cc1ccc(C(O)(Cn2cncc2C#N)C2(F)CC2)c(F)c1 (stereo not drawn)
(A) 3.79^[a]

(Q) Look up LogP of CC(O)(Cn1cncc1Cl)c1ccc(Oc2ccc(Cl)cc2)cc1Br (stereo not drawn) and report it.
(A) 2.82^[a]

(Q) State its LogP for this compound: N#Cc1cncn1CC(O)(CC1CC1)c1c(F)cc(F)cc1F (stereo not drawn)
(A) 2.34^[a]

(Q) Dear colleague, please send me the reported LogP for CCc1ccc(C#CC(O)(Cn2cncc2C#N)C2(Cl)CC2)cc1 (stereo not drawn) when you can.
(A) 3.11^[a]

(Q) Consider the compound CC(C)C(O)(Cn1cncc1C#N)c1ccc(F)cc1F (stereo not drawn) . State its measured LogP.
(A) 2.35^[a]

(Q) Report LogP, nothing else, for this compound: N#Cc1cncn1CC(O)(c1ccc(F)c(Cl)c1F)C1(F)CC1 (stereo not drawn)
(A) 2.35^[a]

(Q) Give the value of LogP reported for the following: N#Cc1cncn1CC(O)c1ccc(Oc2ccc(I)cc2)cc1Br (stereo not drawn)
(A) 3.48^[a]

(Q) State its LogP: CC(C)(C)C(O)(Cn1cncc1C#N)c1ccc(Cl)cc1 (stereo not drawn)
(A) 2.74^[a]

(Q) Please report LogP for the following compound: CC(C)(C)c1ccc(C(O)(Cn2cncc2C#N)C2(Cl)CC2)cc1 (stereo not drawn)
(A) 3.29^[a]

(Q) Look up and state reported LogP for `O=C(Cn1cncc1F)c1ccc(Oc2ccc(S(F)(F)(F)(F)F)cc2)nc1C(F)(F)F`
(A) 3.06^[a]

(Q) Identify LogP associated with the compound OC(Cn1cncc1Br)c1ccc(Oc2ccc(I)cc2)cc1Cl (stereo not drawn)
(A) 2.88^[a]

---

Please go through the items and note down their LogP.
Test: Log P by HPLC on reversed phase columns (EEC directive 79/831 Annex V.A8; methods [a], [b], [c])
Assay type: physicochemical

(Q) Tell me LogP reported for N#Cc1cncn1CC(O)(c1cc(Cl)cc(Cl)c1F)C1(Cl)CC1 (stereo not drawn) [I-609]
(A) 2.76^[a]

(Q) State its LogP for this compound: CC(C)CC#CC(O)(Cn1cncc1C#N)C1(F)CC1 (stereo not drawn) [I-540]
(A) 2.25^[a]

(Q) State, in one line, measured LogP of N#Cc1cncn1CC(O)(c1c(Cl)ccc(Cl)c1F)C1(F)CC1 (stereo not drawn) [I-564]
(A) 2.39^[a]

---

Test: Log P by HPLC on reversed phase columns (EEC directive 79/831 Annex V.A8; methods [a], [b], [c])
Assay type: physicochemical
Settings: reversed phase HPLC column; HPLC on reversed phase columns, method [a]
Experimental: Measurement of Log P values was performed according to EEC directive 79/831 Annex V.A8 by HPLC (High Performance Liquid Chromatography) on reversed phase columns with the following methods: • ^[a] Log P value is determined by measurement of LC-UV, in an acidic range, with 0.1% formic acid in water and acetonitrile as eluent (linear gradient from 10% acetonitrile to 95% acetonitrile). • ^[b] […]
Values of chromatographic logP greater than or equal to 3 map to Condition met; values below map to Condition not met.

(Q) Can CCC(O)(Cn1cncc1C#N)c1ccc(F)cc1 (centres unmarked) be said to have chromatographic logP at or above 3?
(A) Condition not met

(Q) In plain terms: is recorded chromatographic logP at least 3 for CC(O)(Cn1cncc1C#N)c1ccc(Oc2ccc(Br)cc2)cc1Cl (centres unmarked) ?
(A) Condition met

(Q) Hi team, for NC(=S)c1cncn1CC(O)(c1ccc(Br)cc1Cl)C1(F)CC1 (centres unmarked) , is the recorded chromatographic logP at or above 3?
(A) Condition not met

(Q) Decide: is the reported value of chromatographic logP for CCCCC(O)(Cn1cncc1C#N)c1ccc(Cl)cc1 (centres unmarked) equal to or greater than 3?
(A) Condition not met

(Q) Answer whether chromatographic logP of COC(Cn1cncc1F)c1cnc(Oc2ccc(Cl)cc2)cc1C(F)(F)F (centres unmarked) is greater than or equal to 3.
(A) Condition not met

---

Record form. Attribute: LogP. Fill in for each entry.
Test: Log P by HPLC on reversed phase columns (EEC directive 79/831 Annex V.A8; methods [a], [b], [c])
Assay type: physicochemical

(Q) Specify reported LogP for the molecule shown: CCC(C)C(O)(Cn1cncc1C#N)c1ccc(Cl)cc1 (single isomer, unassigned) [I-326]
(A) 2.78^[a]

(Q) For OC(Cn1cncc1F)c1cnc(Oc2ccc(Cl)cc2F)cc1C(F)(F)F (stereo not shown) , write its LogP.
(A) 2.35^[a]

(Q) Give reported LogP value for N#Cc1cncn1CC(O)c1ccc(Oc2ccc(C(F)(F)F)cc2)cc1C(F)(F)F (stereo not shown)
(A) 3.52^[a]

(Q) Respond only with LogP recorded for N#Cc1cncn1CC(O)(c1ccc(Cl)c(Cl)c1)C1(F)CC1 (stereo not shown)
(A) 2.51^[a]

(Q) Please supply the value of reported LogP for the item COC(Cn1cncc1C#N)c1ccc(Oc2ccccc2)cc1F (stereo not shown)
(A) 3.23^[a]

(Q) Answer with reported LogP of N#Cc1cncn1CC(O)(c1cccc(Cl)c1F)C1(F)CC1 (stereo not shown)
(A) 2.21^[a]

(Q) Please indicate LogP recorded for N#Cc1cncn1CC(O)(c1ccc(F)c(Cl)c1Cl)C1(F)CC1 (stereo not shown)
(A) 2.45^[a]

(Q) Quickly give me recorded LogP for N#Cc1cncn1CC(O)c1ccc(Oc2ccc(C(F)F)cc2)nc1C(F)(F)F (stereo not shown)
(A) 2.77^[a]

(Q) Provide one value: measured LogP of N#Cc1cncn1CC(O)(c1ccc(C(F)(F)F)cc1Cl)C1CC1 (stereo not shown)
(A) 2.98^[a]

(Q) Using the record for N#Cc1cncn1CC(O)(c1ccc(F)cc1Cl)C1(F)CC1 (stereo not shown) , state its measured LogP.
(A) 2.22^[a]
